Recorded values, source the RNAGym collection of RNA variant scans (doi:10.1101/gr.219683.116).

B1: mRNA-splicing (parent)
chain: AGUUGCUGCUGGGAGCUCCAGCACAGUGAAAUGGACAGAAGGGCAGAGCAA

Variants of: B1
Assay: exon inclusion enrichment index; higher = more inclusion; WT1 exon 5 minigene, HEK293
Measured attribute: exon inclusion enrichment index
Returns: the value as a bare number; no unit string appended.

Query :: Annotate the variant AGUUGACGACGGGAGCUCCAGCACAGUGAAAUGGACACCAGGGCAGAGCAA [C6A U7C C9A U10C G38C A39C] with its measured exon inclusion enrichment index.
Result :: 3

Query :: Annotate the variant AGUUGCUGCUGGUCGCUCCAGCACAGUGAAAUGGACAGAAGGGCAGAGCAA [G13U A14C] with its measured exon inclusion enrichment index.
Result :: 0.0646

Query :: Annotate the variant AGUUGCUGCUGGGAGCUCCAGCACAGUGAAAUGCACAGAAGGGCAGAGCAA [G34C] with its measured exon inclusion enrichment index.
Result :: 0.0362

Query :: Annotate the variant AGCACACACAGGGAGCUCCAGCACAGUGAAAUGGACAGAAGGGCAGAGCAA [U3C U4A G5C C6A U7C G8A U10A] with its measured exon inclusion enrichment index.
Result :: 0.0745

Query :: Annotate the variant AGUUGGAGACGGGAGCUCCAGCACAGUGAAAUGGACAGAAGGGCAGAGCAA [C6G U7A C9A U10C] with its measured exon inclusion enrichment index.
Result :: 0.641

Query :: Annotate the variant AGUUGAAGAAGGGAGCUCCAGCACAGUGAAAUGGACACAAGGGCAGAGCAA [C6A U7A C9A U10A G38C] with its measured exon inclusion enrichment index.
Result :: 0.524

Query :: Annotate the variant AGUUAUAUAUGGGAGCUCCAGCACAGUGAAAGAGACAGAAGGGCAGAGCAA [G5A C6U U7A G8U C9A U32G G33A] with its measured exon inclusion enrichment index.
Result :: 0.00894

Query :: Annotate the variant AGUUUCUUUUGGGAGCUCCAGCACAGUGAAAUGCGCAGAAGGGCAGAGCAA [G5U G8U C9U G34C A35G] with its measured exon inclusion enrichment index.
Result :: 0.0652

Query :: Annotate the variant AGUUCGCGCCGCAAGCUCCAGCACAGUGAAAUGGACAGAAGGGCAGAGCAA [G5C C6G U7C U10C G12C G13A] with its measured exon inclusion enrichment index.
Result :: 0.8
